For NCI-H23, measured log10 GI50 is reported for the entries below.
REPORTED_ENDPOINT: log10 GI50 (log10 of the value in nM)

[
  {
    "MOLECULE": "COc1ccc(S(=O)(=O)Nc2cc(/C=C\\c3cc(OC)c(OC)c(OC)c3)cc(OC)c2OC)cc1 [13a]",
    "log10 GI50": 1.77
  },
  {
    "MOLECULE": "COc1ccc(S(=O)(=O)Nc2cc(/C=C\\c3cc(OC)c(OC)c(OC)c3)ccc2OC)cc1 [12a]",
    "log10 GI50": 2.68
  },
  {
    "MOLECULE": "COc1ccc(S(=O)(=O)Nc2c(/C=C\\c3cc(OC)c(OC)c(OC)c3)ccc(OC)c2O)cc1 [17a]",
    "log10 GI50": 1.72
  },
  {
    "MOLECULE": "COc1cc(/C=C\\c2cc(OC)c(OC)c(OC)c2)cc(NS(=O)(=O)c2ccc(Cl)cc2)c1OC [13c]",
    "log10 GI50": 2.85
  },
  {
    "MOLECULE": "COc1ccc(/C=C\\c2cc(OC)c(OC)c(OC)c2)c(NS(=O)(=O)c2ccc(Cl)cc2)c1O [17c]",
    "log10 GI50": 2.46
  }
]

FYI, the data here is from patent US10246411B2.
